system: Saccharomyces cerevisiae; assay: protein stability index of tFT-peptide fusion (C-terminal peptide) (PSI (0-1 scale)); higher = more stable (slower turnover); details: genetic background: das1 deletion; temperature: 30 C;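 note: PSI is a weighted mean of sequencing reads over stability bins, variants kept only with over 10 reads, mCherry proximal and sfGFP distal, peptide attached via GGGS linker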
property-label: protein stability index

Report the value of protein stability index obtained on Saccharomyces cerevisiae for `LLSAFPYLPVFA` .
0.251

Report the value of protein stability index obtained on Saccharomyces cerevisiae for `MALAVRVVSCGA` .
0.265

Report the value of protein stability index obtained on Saccharomyces cerevisiae for `LLGHLFTMLVIY` .
0.286

Report the value of protein stability index obtained on Saccharomyces cerevisiae for `PSVRCVVACFIN` .
0.464

Report the value of protein stability index obtained on Saccharomyces cerevisiae for `LVWDLFRCFSML` .
0.647

Report the value of protein stability index obtained on Saccharomyces cerevisiae for `LVWSGLIVVVGG` .
0.2

Report the value of protein stability index obtained on Saccharomyces cerevisiae for `KIRGYLMPLTLL` .
0.557

Report the value of protein stability index obtained on Saccharomyces cerevisiae for `WRMRCGLIIGLV` .
0.155

Report the value of protein stability index obtained on Saccharomyces cerevisiae for `LESYGLRDSTSG` .
0.638

Report the value of protein stability index obtained on Saccharomyces cerevisiae for `IGWGGGTWVKMG` .
0.654

Next:
Report the value of protein stability index obtained on Saccharomyces cerevisiae for `FCGLLGVCLVMG` .
0.243

Report the value of protein stability index obtained on Saccharomyces cerevisiae for `ASIEVGNVIKQM` .
0.627

Report the value of protein stability index obtained on Saccharomyces cerevisiae for `SSVFLGWLIVCY` .
0.173

Report the value of protein stability index obtained on Saccharomyces cerevisiae for `AISLPVEVLAFS` .
0.286

Report the value of protein stability index obtained on Saccharomyces cerevisiae for `IGWKLNRIQKNI` .
0.649

Report the value of protein stability index obtained on Saccharomyces cerevisiae for `GCVTFVLISFCA` .
0.225

Report the value of protein stability index obtained on Saccharomyces cerevisiae for `RPHPLHIPRRLA` .
0.684

Report the value of protein stability index obtained on Saccharomyces cerevisiae for `FSRPTYYFIRHS` .
0.658

Report the value of protein stability index obtained on Saccharomyces cerevisiae for `SWLAQCVVISLL` .
0.507
